# Test system: NCI-H2347 (Lung Adenocarcinoma);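 further: after 72 h of two-drug dosing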
# experiment: Bliss excess, mean over the matrix (fraction); higher = more synergy
Measured Bliss excess, listed per entry.
Give the figure only, with no unit attached.

CN(C)CCCOc1ccc(-c2ccc3ncc4c(c3c2)n(C2CCOCC2)c(=O)n4C)cn1 [AZD0156] + CCN(CCO)CCCOc1ccc2c(Nc3cc(CC(=O)Nc4cccc(F)c4)[nH]n3)ncnc2c1 [AZD2811] (first compound max 1 µM, 7x7, partner max 1 µM) | -0.0299
NC1(C(=O)N[C@@H](CCO)c2ccc(Cl)cc2)CCN(c2ncnc3[nH]ccc23)CC1 [Capivasertib] + CC(C)n1c(=O)n(C)c2cnc3cc(F)c(-c4ccc(OCCCN5CCCCC5)nc4)cc3c21 [AZD1390] (first compound max 10 µM, 7x7, partner max 0.3 µM) | -0.0524
COc1nnc2ccc(N3CCC(c4ccc(OCCN5CCN(C)C(=O)[C@H]5C)cc4)CC3)nn12 [AZD5153] + CC1(C)CCC(CN2CCN(c3ccc(C(=O)NS(=O)(=O)c4ccc(NCC5CCOCC5)c([N+](=O)[O-])c4)c(Oc4cnc5[nH]ccc5c4)c3)CC2)=C(c2ccc(Cl)cc2)C1 [Venetoclax] (first compound max 1 µM, 7x7, partner max 1 µM) | -0.11

Now take the following molecule into account.
## Input Return reported Bliss excess. Input molecule: C=CCn1c(=O)c2cnc(Nc3ccc(N4CCN(C)CC4)cc3)nc2n1-c1cccc(C(C)(C)O)n1 [AZD1775] + C[C@@H]1COCCN1C2=NC(=NC(=C2)C3(CC3)[S@](=N)(=O)C)C4=C5C=CNC5=NC=C4 [AZD6738] (first compound max 1 µM, partner max 10 µM)
## Output 0.0438
